Entries and their measured IC50 follow.
Assayed Target: iNOS (Homo sapiens, UniProt P35228)
Measurement Notes: NOS activity assay, iNOS (L-[3H]citrulline formation)
Type: biochemical
Experimental Setup: Table 5; read-out: IC50 iNOS
Structures can show the parent of a compound that is named as a salt.

Below: 5 molecules and their reported IC50.
1) CC(=O)NCC1CNC(=N)CC1C (mixture of isomers) [Table 5: CH, H, CH3, CH2NHAc, H, H, H, acetic acid salt]: ≤ 50 µM
2) CCCOC1CCC(=N)NC1 (stereo not shown) [Table 5: CH2, H, H, O-n-C3H7, H, H, H, acetic acid salt]: ≤ 1 µM
3) N=C1CCC(C(F)(F)F)CN1 (stereo not shown): ≤ 10 µM
4) CCCC1CCN=C(N)C1 (stereo not shown) [Table 5: CH, H, n-C3H7, H, H, H, H, 2-Imino-4-propylpiperidine hydrochloride]: ≤ 10 µM
5) CC1CC(=N)NCC1C1CCCCC1 (mixture of isomers) [acetic acid salt]: > 50 µM

input: Look up IC50 with iNOS (Homo sapiens, UniProt P35228) for this molecule: NC1=Nc2ccccc2CC1 [Table 5: CH2, H, H, (CH)4, H, H, hydrochloride]
output: ≤ 50 µM

input: Another molecule: CC1CNC(=N)C(C)C1 (stereo not shown) [Table 5: CH2, CH3, H, CH3, H, H, H, hydrochloride]
output: ≤ 50 µM
